Sourced from PubChem BioAssay (NCI)

# System: MDA-MB-231 breast
# Assay details: NCI tumour cell line growth inhibition, 48 h

Compound: CN(C)CCC=C1c2ccccc2C(C)(C)c2ccccc21
GI50: 13.8 µM
//
Compound: O=C(NNc1ccc(F)cc1)C1CCC(CNS(=O)(=O)c2ccc(Cl)c(Cl)c2)CC1 (stereo not drawn)
GI50: 3.17 µM
//
Compound: O=C1C(=O)c2ccccc2C(O)=C1CCCc1ccc(C2CCCC2)cc1
GI50: 11.1 µM

---

# System: RXF 393 renal
# Assay details: NCI tumour cell line growth inhibition, 48 h
TGI reference
Measure: TGI

Molecule: COC1=C(Br)C(O)C2(C=C1Br)CC(C(=O)NCCCCNC(=O)C1=NOC3(C=C(Br)C(OC)=C(Br)C3O)C1)=NO2 (stereo not drawn)
Recorded result: 69.6 µM
//
Molecule: COc1cc(/C=C/c2nc(N)nnc2C)cc(OC)c1OC
Recorded result: > 64.4 µM
//
Molecule: O=C1CCCC(=O)N1n1c(Cc2ccccc2)n[nH]c1=O
Recorded result: > 100 µM
//
Molecule: CN1CC[C@]2(c3cccc(O)c3)CC(=O)/C(=C/c3ccccc3)[C@H]1C2
Recorded result: 8.03 µM
//
Molecule: CCC(=O)NC(Nc1cccc(F)c1)(C(F)(F)F)C(F)(F)F
Recorded result: > 100 µM
//
Molecule: O=C(NNC(=S)Nc1ccc(Br)cc1)c1cc(-c2ccccc2)nc2ccccc12
Recorded result: 40.4 µM
//
Molecule: O=C(/C=C/c1ccccc1Cl)c1cccc2ccccc12
Recorded result: 28.6 µM
//
Molecule: CC(Oc1ccc(OCC2CCCCC2)cc1)C(=O)NCCO (stereo not drawn)
Recorded result: > 100 µM
//
Molecule: COc1ccc2c(Cc3c4ccccc4cc4ccccc34)cncc2c1O
Recorded result: > 21.6 µM
//
Molecule: Cc1ccc(NC(=O)CC/C(CC(=O)C(C)(C)C)=N/NC(=O)C[N+](C)(C)C)cc1C
Recorded result: > 100 µM
//
Molecule: Cn1cc(S(=O)(=O)NC(=O)Nc2ccc(Cl)cc2)c2ccccc21
Recorded result: > 100 µM
//
Molecule: CSc1nc2c(nc(N)n2C2OC(COC(C)=O)C(OC(C)=O)C(OC(C)=O)C2OC(C)=O)c(=O)n1C (stereo not drawn)
Recorded result: > 100 µM
//
Molecule: CSCC[C@H](NC(=O)[C@H](CC(C)C)NC(=O)[C@@H](Cc1ccccc1)NC(=O)CNC(=O)[C@@H](NC(=O)[C@H](C)NC(=O)[C@H](Cc1c[nH]c2ccccc12)NC(=O)[C@H](CCC(N)=O)NC(=O)[C@H](N)CC(N)=O)C(C)C)C(N)=O
Recorded result: > 12.5 µM
